The origin of these recorded values is patent US20230312550A1.

target: UniProt:Q12884; test: hFAP binding assay (surface plasmon resonance); conditions: SPR, 20° C., single cycle kinetics
Sequence (Q12884 39-757): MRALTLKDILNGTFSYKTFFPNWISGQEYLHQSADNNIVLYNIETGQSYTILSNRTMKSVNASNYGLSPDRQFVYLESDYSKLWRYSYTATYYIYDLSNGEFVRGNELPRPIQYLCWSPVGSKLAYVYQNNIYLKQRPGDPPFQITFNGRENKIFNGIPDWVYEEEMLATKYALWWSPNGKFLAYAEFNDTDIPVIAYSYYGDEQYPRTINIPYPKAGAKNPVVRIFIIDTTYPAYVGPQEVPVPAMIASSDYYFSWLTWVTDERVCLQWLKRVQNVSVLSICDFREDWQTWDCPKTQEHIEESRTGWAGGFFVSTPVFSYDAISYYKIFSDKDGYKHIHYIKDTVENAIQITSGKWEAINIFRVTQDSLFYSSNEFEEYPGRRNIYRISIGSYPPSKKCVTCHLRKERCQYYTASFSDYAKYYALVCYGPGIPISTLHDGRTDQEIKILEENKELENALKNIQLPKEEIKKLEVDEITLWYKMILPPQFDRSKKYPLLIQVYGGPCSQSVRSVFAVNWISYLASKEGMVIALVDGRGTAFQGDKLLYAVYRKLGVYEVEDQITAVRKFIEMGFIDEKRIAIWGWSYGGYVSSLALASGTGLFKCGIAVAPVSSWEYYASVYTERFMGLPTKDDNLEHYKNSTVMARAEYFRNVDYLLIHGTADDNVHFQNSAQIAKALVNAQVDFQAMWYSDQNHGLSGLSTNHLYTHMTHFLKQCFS
hFAP Binding assay k(off) for assorted compounds
measuredMetric: hFAP Binding assay k(off) (s⁻¹)

Cn1cc(-c2ccc3nccc(C(=O)NCC(=O)N4CSC[C@H]4C#N)c3c2)cn1 [Example 129]: 0.00012
COC[C@@H]1[C@@H](C)OCCN1c1ccc2nccc(C(=O)NCC(=O)N3CSC[C@H]3C#N)c2c1 [Example 97]: 0.000076
N#C[C@@H]1CSCN1C(=O)CNC(=O)c1ccnc2ccc(N3CCCC[C@H](F)C3)cc12 [Example 60]: 0.00017
Cc1ccn(-c2ccc3nccc(C(=O)NCC(=O)N4CSC[C@H]4C#N)c3c2)c1 [Example 121]: 0.000016
CC1(C)CCN(c2ccc3nccc(C(=O)NCC(=O)N4CSC[C@H]4C#N)c3c2)C1=O [Example 12]: 0.000064
N#C[C@@H]1CSCN1C(=O)CNC(=O)c1ccnc2ccc(N3CC[C@@H](F)C3)cc12 [Example 52]: 0.00019
N#C[C@@H]1CSCN1C(=O)CNC(=O)c1ccnc2ccc(N3CC(F)C3)cc12 [Example 21]: 0.0002
Cc1cc(C(F)(F)F)nn1-c1ccc2nccc(C(=O)NCC(=O)N3CSC[C@H]3C#N)c2c1 [Example 116]: 0.0012
